assayed.target: EPHA1 (Homo sapiens)
Sequence (P21709 26-976): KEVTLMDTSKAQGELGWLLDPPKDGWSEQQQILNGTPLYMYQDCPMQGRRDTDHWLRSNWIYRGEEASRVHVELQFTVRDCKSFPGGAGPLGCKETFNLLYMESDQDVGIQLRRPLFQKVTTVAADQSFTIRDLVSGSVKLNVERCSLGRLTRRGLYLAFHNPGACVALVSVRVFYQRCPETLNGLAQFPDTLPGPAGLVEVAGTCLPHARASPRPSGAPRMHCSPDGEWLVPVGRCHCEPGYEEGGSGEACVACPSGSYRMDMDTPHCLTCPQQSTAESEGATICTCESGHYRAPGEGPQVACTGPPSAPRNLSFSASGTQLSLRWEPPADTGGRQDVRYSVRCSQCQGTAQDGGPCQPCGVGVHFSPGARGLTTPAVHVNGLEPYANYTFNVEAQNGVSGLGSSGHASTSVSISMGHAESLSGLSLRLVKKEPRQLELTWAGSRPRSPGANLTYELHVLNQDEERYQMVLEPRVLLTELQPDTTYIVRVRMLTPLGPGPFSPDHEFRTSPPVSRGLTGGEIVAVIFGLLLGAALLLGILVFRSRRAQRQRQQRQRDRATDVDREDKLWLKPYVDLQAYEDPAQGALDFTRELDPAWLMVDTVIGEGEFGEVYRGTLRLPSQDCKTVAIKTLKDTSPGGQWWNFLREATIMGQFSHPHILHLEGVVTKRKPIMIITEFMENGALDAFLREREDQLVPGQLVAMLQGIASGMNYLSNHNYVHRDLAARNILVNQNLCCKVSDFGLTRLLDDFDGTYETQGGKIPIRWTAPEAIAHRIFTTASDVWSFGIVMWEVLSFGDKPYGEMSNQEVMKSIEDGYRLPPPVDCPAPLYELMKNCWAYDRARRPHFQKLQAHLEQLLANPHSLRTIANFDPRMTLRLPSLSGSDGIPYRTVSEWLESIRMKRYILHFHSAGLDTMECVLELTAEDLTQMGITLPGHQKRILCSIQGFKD
pIC50: −log10 of the molar value.
reported.endpoint: pIC50

[
  {
    "compound": "Cc1cc2c(cc1C)[n+](Cc1ccccc1Br)cn2Cc1ccc2c(c1)CCO2.[Br-] [B591]",
    "assayed.target": "EPHA1 (Homo sapiens)",
    "reported.endpoint": "pIC50",
    "data.value": "< 3.30"
  }
]

---

assayed.target: EPHA8 (Homo sapiens)
Sequence (P29322 28-1005): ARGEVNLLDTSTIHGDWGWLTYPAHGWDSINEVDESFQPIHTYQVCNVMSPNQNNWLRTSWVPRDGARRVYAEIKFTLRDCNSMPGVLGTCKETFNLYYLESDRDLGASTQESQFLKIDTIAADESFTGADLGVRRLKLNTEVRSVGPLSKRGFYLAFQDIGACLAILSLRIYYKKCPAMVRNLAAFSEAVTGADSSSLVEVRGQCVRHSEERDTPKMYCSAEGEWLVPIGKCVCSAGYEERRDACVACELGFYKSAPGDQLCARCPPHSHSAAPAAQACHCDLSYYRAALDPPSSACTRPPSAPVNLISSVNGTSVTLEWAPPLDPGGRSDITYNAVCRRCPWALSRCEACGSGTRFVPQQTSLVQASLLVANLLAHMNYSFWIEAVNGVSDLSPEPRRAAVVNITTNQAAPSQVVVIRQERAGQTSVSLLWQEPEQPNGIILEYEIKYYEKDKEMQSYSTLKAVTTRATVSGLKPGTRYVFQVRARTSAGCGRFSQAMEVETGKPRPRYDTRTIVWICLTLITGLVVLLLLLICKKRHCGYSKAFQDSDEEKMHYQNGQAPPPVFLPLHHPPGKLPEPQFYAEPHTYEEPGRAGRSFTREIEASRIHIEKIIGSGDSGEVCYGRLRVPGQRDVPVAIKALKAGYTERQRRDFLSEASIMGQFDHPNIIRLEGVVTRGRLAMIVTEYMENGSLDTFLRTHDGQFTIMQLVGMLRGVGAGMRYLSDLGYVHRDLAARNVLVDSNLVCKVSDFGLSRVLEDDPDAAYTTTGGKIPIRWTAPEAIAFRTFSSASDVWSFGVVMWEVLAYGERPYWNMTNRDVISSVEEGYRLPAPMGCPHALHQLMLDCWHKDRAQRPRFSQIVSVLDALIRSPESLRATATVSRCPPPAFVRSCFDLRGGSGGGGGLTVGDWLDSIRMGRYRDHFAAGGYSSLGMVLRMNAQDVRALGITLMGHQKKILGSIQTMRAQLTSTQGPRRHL

[
  {
    "molecule": "Cc1cc2c(cc1C)[n+](Cc1ccccc1Br)cn2Cc1ccc2c(c1)CCO2.[Br-] [B591]",
    "IC50": "> 500 µM"
  }
]

---

assayed.target: UniProtKB O00750
Sequence (O00750 whole entry): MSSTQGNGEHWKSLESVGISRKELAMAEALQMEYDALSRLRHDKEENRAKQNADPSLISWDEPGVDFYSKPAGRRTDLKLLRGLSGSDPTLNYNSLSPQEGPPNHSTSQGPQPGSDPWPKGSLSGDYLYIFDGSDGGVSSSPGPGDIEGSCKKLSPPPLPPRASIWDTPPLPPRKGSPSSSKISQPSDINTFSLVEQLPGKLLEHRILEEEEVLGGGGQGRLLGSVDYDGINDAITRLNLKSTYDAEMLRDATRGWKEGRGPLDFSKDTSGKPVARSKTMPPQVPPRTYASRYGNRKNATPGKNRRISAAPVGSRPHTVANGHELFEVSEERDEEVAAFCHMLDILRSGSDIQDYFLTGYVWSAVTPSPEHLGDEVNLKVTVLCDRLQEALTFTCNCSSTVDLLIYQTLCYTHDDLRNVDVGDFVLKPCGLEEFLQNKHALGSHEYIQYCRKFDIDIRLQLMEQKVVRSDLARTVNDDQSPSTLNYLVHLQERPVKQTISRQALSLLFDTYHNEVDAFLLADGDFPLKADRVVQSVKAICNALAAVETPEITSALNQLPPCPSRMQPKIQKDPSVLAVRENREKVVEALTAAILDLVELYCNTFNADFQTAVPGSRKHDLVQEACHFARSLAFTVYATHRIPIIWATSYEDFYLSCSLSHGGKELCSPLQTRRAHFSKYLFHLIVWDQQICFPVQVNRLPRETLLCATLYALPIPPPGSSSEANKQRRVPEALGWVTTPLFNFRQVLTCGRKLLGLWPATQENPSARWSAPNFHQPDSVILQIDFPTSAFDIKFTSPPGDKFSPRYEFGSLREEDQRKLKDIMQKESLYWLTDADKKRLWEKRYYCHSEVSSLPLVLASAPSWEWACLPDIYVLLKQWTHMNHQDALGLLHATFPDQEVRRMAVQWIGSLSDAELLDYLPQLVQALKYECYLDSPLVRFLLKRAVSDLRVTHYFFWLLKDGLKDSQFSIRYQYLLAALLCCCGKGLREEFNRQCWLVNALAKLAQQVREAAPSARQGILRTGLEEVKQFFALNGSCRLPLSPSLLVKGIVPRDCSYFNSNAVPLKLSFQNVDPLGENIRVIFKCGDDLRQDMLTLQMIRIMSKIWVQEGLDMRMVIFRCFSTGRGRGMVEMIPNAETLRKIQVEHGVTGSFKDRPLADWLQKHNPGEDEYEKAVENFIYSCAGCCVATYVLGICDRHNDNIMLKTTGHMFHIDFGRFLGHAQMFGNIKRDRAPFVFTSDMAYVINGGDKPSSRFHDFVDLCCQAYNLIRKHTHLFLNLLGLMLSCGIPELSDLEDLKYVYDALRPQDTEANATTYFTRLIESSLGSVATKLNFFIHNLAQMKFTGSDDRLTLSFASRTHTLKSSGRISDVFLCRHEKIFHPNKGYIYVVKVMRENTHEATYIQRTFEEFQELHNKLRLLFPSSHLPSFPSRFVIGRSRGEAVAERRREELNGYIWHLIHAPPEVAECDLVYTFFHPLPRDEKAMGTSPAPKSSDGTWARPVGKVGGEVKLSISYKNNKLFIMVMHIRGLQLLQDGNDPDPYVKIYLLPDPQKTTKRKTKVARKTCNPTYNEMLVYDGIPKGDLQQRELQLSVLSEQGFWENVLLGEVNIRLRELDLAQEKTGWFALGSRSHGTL
run.description: Biochemical kinase profiling (Life Technologies)

[
  {
    "compound.structure": "Cc1cc2c(cc1C)[n+](Cc1ccccc1Br)cn2Cc1ccc2c(c1)CCO2.[Br-]",
    "unit.descriptor": "µM",
    "IC50": 91
  }
]

---

assayed.target: GSK3B (GSK3 beta) (Homo sapiens)
Sequence (P49841 whole entry): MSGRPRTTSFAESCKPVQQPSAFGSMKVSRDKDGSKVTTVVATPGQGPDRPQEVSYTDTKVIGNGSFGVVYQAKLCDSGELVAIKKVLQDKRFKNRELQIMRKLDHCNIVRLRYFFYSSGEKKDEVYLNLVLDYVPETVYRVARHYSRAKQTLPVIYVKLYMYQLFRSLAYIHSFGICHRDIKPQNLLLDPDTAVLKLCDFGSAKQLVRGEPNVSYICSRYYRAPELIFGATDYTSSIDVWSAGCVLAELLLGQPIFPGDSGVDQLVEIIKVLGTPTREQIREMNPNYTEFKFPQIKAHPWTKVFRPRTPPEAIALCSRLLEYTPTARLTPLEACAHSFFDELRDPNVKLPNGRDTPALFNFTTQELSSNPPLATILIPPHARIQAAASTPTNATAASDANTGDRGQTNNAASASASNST
pIC50: −log10 of the molar value.

[
  {
    "compound.structure": "Cc1cc2c(cc1C)[n+](Cc1ccccc1Br)cn2Cc1ccc2c(c1)CCO2.[Br-]",
    "assayed.target": "GSK3B (GSK3 beta) (Homo sapiens)",
    "pIC50": "< 3.30"
  }
]

Values from paper PMC6756013
